target: HLA-A*02:06; assay: IEDB peptide-MHC binding, purified MHC/competitive/fluorescence; filed as Kd, often an IC50 or EC50 that approximates it; bounds were set here for any values at or beyond the usual limits of such assays; conditions: source organism: Human immunodeficiency virus 1
The entries below are paired with their reported Kd.
result_type: Kd (nM)

INSERT INTO assay_data (sequence_entry, result_type, val) VALUES
  ('VLYCVHQRV', 'Kd', 0.5),
  ('RSLFNTVAVLY', 'Kd', 952),
  ('EKLKSLFNTV', 'Kd', 343);

----------
molecular target: HLA-B*38:01; assay: IEDB peptide-MHC binding, purified MHC/direct/fluorescence; filed as Kd, often an IC50 or EC50 that approximates it; bounds were set here for any values at or beyond the usual limits of such assays; conditions: source organism: Mycobacterium tuberculosis str. Haarlem
pKd: −log10 of the molar value.
result_type: pKd

INSERT INTO assay_data (sequence_entry, val) VALUES
  ('RPPMVTSGL', '≤ 4.70');

----------
molecular target: HLA-C*06:02; assay: IEDB peptide-MHC binding, purified MHC/direct/fluorescence; filed as Kd, often an IC50 or EC50 that approximates it; bounds were set here for any values at or beyond the usual limits of such assays; details: source organism: Yersinia pestis Nepal516
pKd: −log10 of the molar value.
result_type: pKd

INSERT INTO measurements (sequence_entry, val) VALUES
  ('RAMRMVYYL', 6.10);

----------
biological target: HLA-A*02:03; assay: IEDB peptide-MHC binding, purified MHC/competitive/radioactivity; filed as Kd, often an IC50 or EC50 that approximates it; bounds were set here for any values at or beyond the usual limits of such assays; conditions: source organism: Dengue virus 4 Philippines/H241/1956
pKd: −log10 of the molar value.
The entries below are paired with their reported pKd.
result_type: pKd

INSERT INTO measurements (sequence_entry, result_type, val) VALUES
  ('SVYTTMFGGV', 'pKd', 8.08),
  ('TMFGGVSWMV', 'pKd', 7.19),
  ('GLFKTLTGEI', 'pKd', 7.82);

----------
molecular target: HLA-B*57:01; assay: IEDB peptide-MHC binding, purified MHC/direct/fluorescence; filed as Kd, often an IC50 or EC50 that approximates it; bounds were set here for any values at or beyond the usual limits of such assays; settings: source organism: Yellow fever virus 17D
pKd: −log10 of the molar value.
result_type: pKd

INSERT INTO results (sequence_entry, result_type, val) VALUES
  ('VRGGMVAPL', 'pKd', '≤ 4.70');

----------
target: HLA-B*35:01; test: IEDB peptide-MHC binding, purified MHC/competitive/radioactivity; filed as Kd, often an IC50 or EC50 that approximates it; bounds were set here for any values at or beyond the usual limits of such assays; conditions: source organism: SARS coronavirus Tor2
pKd: −log10 of the molar value.
result_type: pKd

INSERT INTO results (sequence_entry, result_type, val) VALUES
  ('HPLADNKFAL', 'pKd', 6.73),
  ('TPLVQPVGAL', 'pKd', 5.28),
  ('LPFTLGIMAI', 'pKd', 5.30);

----------
target: HLA-B*08:02; experiment: IEDB peptide-MHC binding, purified MHC/direct/fluorescence; filed as Kd, often an IC50 or EC50 that approximates it; bounds were set here for any values at or beyond the usual limits of such assays; conditions: source organism: Brucella suis 1330
result_type: Kd (nM)

INSERT INTO assay_data (sequence_entry, assayed_target, measure_unit, val) VALUES
  ('YQRRRRFAI', 'HLA-B*08:02', 'nM', 367);
